- MEASURED_TARGET: Shiga toxin 2 (Escherichia coli O157:H7) (UniProt P09385+P09386)
- PROCEDURE_DETAILS: E. coli 0.157:H7 Shiga Toxin SOP - stx2 screening assay
- Assay type: functional
- Set-up: scale not given: direction of the effect not stated beside the values
- MEASUREMENT_SETUP: 30 µM
Response key: 1 means Percent Effect >= 10%; 0 means Percent Effect < 10%.

Here are 5 compounds together with their reported answers.
| COMPOUND | CATEGORY |
| --- | --- |
| Cc1cc(C)c(CNC(=O)N(C)CC2CCCCO2)c(=O)[nH]1 (stereo unspecified) | 1 |
| Cc1cnn(CC2CN(CCc3ccncc3)CCO2)c1 (stereo unspecified) | 0 |
| O=C(Cc1cccc(F)c1)NCCNCc1ccc2c(c1)CCO2 | 0 |
| Cn1c(Cn2cccn2)nnc1C1CCN(Cc2cccnc2N)CC1 | 0 |
| CC(=O)N(Cc1noc(C2CC2)n1)C1CCN(Cc2nccn2C)C1 (stereo unspecified) | 1 |

Attention now turns to another entry.
Q) In plain terms: is recorded Percent Effect at least 10% for COc1ccc(C)cc1CNCc1ccc(-n2nc(C)cc2C)nc1 ?
A) 1
